We begin with a simple list: items and their reported melting point.
MEASURE NAME: melting point

INSERT INTO measurements (compound, val) VALUES
  ('COc1cc2c(Oc3ccc(NS(=O)(=O)c4c(Cl)cccc4Cl)cc3F)ccnc2cc1OCCN1CCOCC1', '210 to 211 °C'),
  ('COc1cc2c(Oc3ccc(NS(=O)(=O)c4ccccc4C(F)(F)F)cc3F)ccnc2cc1OCCCN1CCN(C)CC1', '102 to 106 °C'),
  ('COc1cc2c(Oc3ccc(NS(=O)(=O)c4cccs4)cc3F)ccnc2cc1OCCN1CCOCC1', '146 to 147 °C'),
  ('COc1cc2c(Oc3ccc(NS(=O)(=O)c4ccccc4[N+](=O)[O-])cc3F)ccnc2cc1OCCCN1CCN(C)CC1', '125 to 128 °C'),
  ('COc1cc2c(Oc3ccc(NS(=O)(=O)c4ccccc4C(F)(F)F)cc3F)ccnc2cc1OCCCN1CCCCC1C (centres unmarked)', '115 to 116 °C'),
  ('COc1cc2c(Oc3ccc(NS(=O)(=O)c4cccc(-c5ccccc5)c4)cc3F)ccnc2cc1OCCCN1CCN(C)CC1', '190 to 191 °C'),
  ('COc1cc2c(Oc3ccc(NS(=O)(=O)c4c(Cl)cccc4Cl)cc3F)ccnc2cc1OCCCN(C)C', '197 to 198 °C'),
  ('COc1cc2c(Oc3cccc(NS(=O)(=O)C4CC4)c3)ccnc2cc1OCCCN1CCN(C)CC1', '150 to 152 °C'),
  ('COc1cc2c(Oc3ccc(NS(=O)(=O)c4ccccc4OC(F)(F)F)cc3F)ccnc2cc1OCCCN1CCN(C)CC1', '86 to 90 °C'),
  ('COc1cc2c(Oc3ccc(NS(=O)(=O)c4cc(F)ccc4F)cc3F)ccnc2cc1OCCCN(C)C', '108 to 110 °C'),
  ('COc1cc2c(Oc3ccc(Cl)c(NS(=O)(=O)c4c(Cl)cccc4Cl)c3)ccnc2cc1OCCCN1CCC(C)CC1', '206 to 208 °C'),
  ('COc1cc2c(Oc3cccc(NS(=O)(=O)c4ccccc4C(F)(F)F)c3)ccnc2cc1OCCCN1CCN(C)CC1', '155 to 156 °C'),
  ('COc1cc2c(Oc3ccc(NS(=O)(=O)c4ccc(F)c(F)c4F)cc3F)ccnc2cc1OCCCN1CCCC(C)C1 (centres unmarked)', '134 to 136 °C'),
  ('COc1cc2c(Oc3cccc(NS(=O)(=O)c4c(Cl)cccc4Cl)c3)ccnc2cc1OCCCN1CCN(C)CC1', '111 to 112 °C'),
  ('COc1cc2c(Oc3ccc(NS(=O)(=O)c4c(Cl)csc4Cl)cc3F)ccnc2cc1OCCCN1CCCCC1C (centres unmarked)', '131 to 132 °C'),
  ('COc1cc2c(Oc3ccc(NS(=O)(=O)c4ccccc4F)cc3F)ccnc2cc1OCCCN1CCCCC1', '214 to 216 °C'),
  ('COc1cc2c(Oc3cc(NS(=O)(=O)c4c(Cl)cccc4Cl)ccc3F)ccnc2cc1OCCCN1CCC(C)CC1', '116 to 118 °C'),
  ('COc1cc2c(Oc3ccc(NS(=O)(=O)c4cccc(OC(F)F)c4)cc3F)ccnc2cc1OCCCN1CCCCC1', '105 to 106 °C'),
  ('COc1cc2c(Oc3ccc(NS(=O)(=O)c4c(F)cccc4F)cc3C)ccnc2cc1OCCCN1CCC(C)CC1', '191 to 193 °C'),
  ('COc1cc2c(Oc3ccc(NS(=O)(=O)c4c(C)nn(C)c4C)cc3F)ccnc2cc1OCCCN1CCN(C)CC1', '80 to 81 °C'),
  ('COc1cc2c(Oc3ccc(NS(=O)(=O)c4ccccc4C(F)(F)F)cc3F)ccnc2cc1OCCCN1CCCCC1', '173 to 175 °C'),
  ('CCCCS(=O)(=O)Nc1ccc(Oc2ccnc3cc(OCCCN4CCOCC4)c(OC)cc23)c(F)c1', '98 to 100 °C'),
  ('COc1cc2c(Oc3ccc(NS(=O)(=O)c4ccccc4Cl)cc3F)ccnc2cc1OCCCN1CCCC(C)C1 (centres unmarked)', '115 to 118 °C'),
  ('COc1cc2c(Oc3ccc(NS(=O)(=O)c4ccn(C)n4)cc3F)ccnc2cc1OCCCN1CCOCC1', '198 to 199 °C'),
  ('COc1cc2c(Oc3ccc(NS(=O)(=O)c4ccc(F)c(C#N)c4)cc3F)ccnc2cc1OCCCN1CCCC(C)C1 (centres unmarked)', '125 to 127 °C'),
  ('COc1cc2c(Oc3ccc(NS(=O)(=O)c4cccc(Cl)c4F)cc3F)ccnc2cc1OCCCN1CCCC(C)C1 (centres unmarked)', '125 to 127 °C'),
  ('COc1cc2c(Oc3ccc(NS(=O)(=O)c4ccccc4OC)cc3F)ccnc2cc1OCCCN1CCCC(C)C1 (centres unmarked)', '175 to 176 °C'),
  ('COc1cc2c(Oc3ccc(NS(=O)(=O)c4cccc(Cl)c4)cc3F)ccnc2cc1OCCCN1CCCC(C)C1 (centres unmarked)', '110 to 112 °C'),
  ('COc1cc2c(Oc3ccc(NS(=O)(=O)c4ccccc4C(F)(F)F)cc3F)ccnc2cc1OCC(=O)N(C)C', '134 to 135 °C');

###

MEASURE NAME: melting point

INSERT INTO assay_data (molecule, measure_name, val) VALUES
  ('COc1cc2c(Oc3ccc(NS(=O)(=O)c4cccc(C(F)(F)F)c4)cc3F)ccnc2cc1OCCCN1CCCC(C)C1 (stereo not drawn)', 'melting point', '128 to 130 °C'),
  ('COc1cc2c(Oc3ccc(NS(=O)(=O)c4csc5ccccc45)cc3F)ccnc2cc1OCCCN1CCCCC1', 'melting point', '128 to 130 °C'),
  ('COc1cc2c(Oc3ccc(NS(=O)(=O)c4ccccc4Br)cc3F)ccnc2cc1OCCCN1CCN(C)CC1', 'melting point', '98 to 101 °C'),
  ('COc1cc2c(Oc3ccc(NS(=O)(=O)c4cc(Cl)cc(Cl)c4OC)cc3F)ccnc2cc1OCCCN1CCCCC1', 'melting point', '173 to 175 °C'),
  ('COc1cc2c(Oc3ccc(NS(=O)(=O)c4c[nH]c(C)n4)cc3F)ccnc2cc1OCCCN1CCCCC1C (stereo not drawn)', 'melting point', '219 to 220 °C'),
  ('COc1cc2c(Oc3ccc(NS(=O)(=O)c4ccccc4OC(F)(F)F)cc3F)ccnc2cc1OCCCN(C)C', 'melting point', '94 to 96 °C'),
  ('COc1cc2c(Oc3ccc(NS(=O)(=O)c4cccc5ccccc45)cc3F)ccnc2cc1OCCCN1CCCC(C)C1 (stereo not drawn)', 'melting point', '131 to 133 °C'),
  ('COc1cc2c(Oc3ccc(NS(=O)(=O)c4c(Cl)csc4Cl)cc3F)ccnc2cc1OCCCN1CCCC(C)C1 (stereo not drawn)', 'melting point', '119 to 121 °C'),
  ('COc1cc2c(Oc3cccc(NS(=O)(=O)c4ccccc4OC(F)(F)F)c3)ccnc2cc1OCCCN1CCN(C)CC1', 'melting point', '164 to 166 °C'),
  ('COc1cc2c(Oc3ccc(NS(=O)(=O)c4ccccc4C(F)(F)F)cc3F)ccnc2cc1OCCCN(C)C', 'melting point', '89 to 91 °C'),
  ('COc1cc2c(Oc3ccc(NS(=O)(=O)c4ccccc4C(F)(F)F)cc3F)ccnc2cc1OCCCCOC(C)=O', 'melting point', '143 to 145 °C'),
  ('COc1cc2c(Oc3ccc(NS(=O)(=O)c4ccccc4C(F)(F)F)cc3F)ccnc2cc1OCCCNC(=O)NC(C)(C)C', 'melting point', '106 to 108 °C'),
  ('COc1cc2c(Oc3ccc(NS(=O)(=O)c4ccccc4OC(F)(F)F)cc3F)ccnc2cc1OCCCN1CCCCC1', 'melting point', '156 to 158 °C'),
  ('COc1cc2c(Oc3ccc(NS(=O)(=O)c4ccc(Cl)s4)cc3F)ccnc2cc1OCCCN(C)C', 'melting point', '130 to 132 °C'),
  ('COc1cc2c(Oc3ccc(NS(=O)(=O)c4ccccc4C(F)(F)F)c(F)c3)ccnc2cc1OCCCN1CCCC(C)C1 (stereo not drawn)', 'melting point', '125 to 126 °C');

###

System: viable cells in culture
Assay: Cell viability assay at 10 μM (CellTiter-Glo, Table VII);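 further: graded A 0-20%; B 21-40%; C 41-60%; D over 60% viable cells relative to DMSO control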
Type: cell-based
Conditions: Homo sapiens, HCT-116; HCT116 def; compound 10 μM; 72 h; read-out: percentage (%) of viable cells HCT 116def
We begin with a simple list: items and their reported viability at 10 µM.
MEASURE NAME: viability at 10 µM

INSERT INTO assay_data (compound, measure_name, val) VALUES
  ('COc1cc2c(Oc3ccc(NS(=O)(=O)c4ccccc4C(F)(F)F)cc3F)ccnc2cc1OCCCN(C)C [Example 100]', 'viability at 10 µM', '0 to 20%'),
  ('COc1cc2c(Oc3ccc(NS(=O)(=O)c4cccc(C#N)c4)cc3F)ccnc2cc1OCCCN1CCCC(C)C1 (centres unmarked) [Example 41]', 'viability at 10 µM', '0 to 20%'),
  ('COc1cc2c(Oc3ccc(NS(=O)(=O)c4ccccc4C(F)(F)F)cc3Cl)ccnc2cc1OCCCN1CCN(C)CC1 [Example 87]', 'viability at 10 µM', '0 to 20%'),
  ('CN1CCN(CCCOc2ccc3nccc(Oc4ccc(NS(=O)(=O)c5ccccc5C(F)(F)F)cc4F)c3c2)CC1 [Example 85]', 'viability at 10 µM', '21 to 40%'),
  ('COc1cc2c(Oc3ccc(NS(=O)(=O)c4cccc5ccccc45)cc3F)ccnc2cc1OCCCN1CCCC(C)C1 (centres unmarked) [Example 58]', 'viability at 10 µM', '21 to 40%'),
  ('COc1cc2c(Oc3ccc(NS(=O)(=O)c4cccc(-c5ccccc5)c4)cc3F)ccnc2cc1OCCCN1CCN(C)CC1 [Example 13]', 'viability at 10 µM', '0 to 20%'),
  ('COc1cc2c(Oc3ccc(NS(=O)(=O)c4cccc(Oc5ccccc5)c4)cc3F)ccnc2cc1OCCCN1CCCC(C)C1 (centres unmarked) [Example 59]', 'viability at 10 µM', '0 to 20%'),
  ('COc1cc2c(Oc3ccc(NS(=O)(=O)c4ccccc4F)cc3F)ccnc2cc1OCCN1CCOCC1 [Example 81]', 'viability at 10 µM', '21 to 40%'),
  ('COc1cc2c(Oc3ccc(NS(=O)(=O)c4ccccc4C(F)(F)F)cc3F)ccnc2cc1OCCCN1CCCCC1C (centres unmarked) [Example 99]', 'viability at 10 µM', '> 60%'),
  ('COc1cc(S(=O)(=O)Nc2ccc(Oc3ccnc4cc(OCCCN5CCN(C)CC5)c(OC)cc34)c(F)c2)ccc1F [Example 18]', 'viability at 10 µM', '0 to 20%'),
  ('COc1cc2c(Oc3ccc(NS(=O)(=O)c4ccccc4[N+](=O)[O-])cc3F)ccnc2cc1OCCCN1CCN(C)CC1 [Example 21]', 'viability at 10 µM', '41 to 60%'),
  ('COc1cc2c(Oc3ccc(NS(=O)(=O)c4cccc(-c5ccccc5)c4)cc3F)ccnc2cc1OCCCN1CCCCC1 [Example 8]', 'viability at 10 µM', '0 to 20%'),
  ('COc1cc2c(Oc3ccc(NS(=O)(=O)c4cc(Cl)cc(Cl)c4OC)cc3F)ccnc2cc1OCCCN1CCCCC1 [Example 34]', 'viability at 10 µM', '21 to 40%'),
  ('COc1cc2c(Oc3ccc(NS(=O)(=O)c4ccc(F)cc4F)cc3F)ccnc2cc1OCCCN1CCCC(C)C1 (centres unmarked) [Example 47]', 'viability at 10 µM', '21 to 40%'),
  ('COc1cc2c(Oc3ccc(NS(=O)(=O)c4ccc(F)c(Cl)c4)cc3F)ccnc2cc1OCCCN1CCN(C)CC1 [Example 23]', 'viability at 10 µM', '0 to 20%'),
  ('COc1cc2c(Oc3ccc(NS(=O)(=O)c4cc(Cl)ccc4Cl)cc3F)ccnc2cc1OCCCN1CCN(C)CC1 [Example 20]', 'viability at 10 µM', '21 to 40%'),
  ('COc1cc2c(Oc3ccc(NS(=O)(=O)c4ccc(F)c(C#N)c4)cc3F)ccnc2cc1OCCCN1CCCC(C)C1 (centres unmarked) [Example 72]', 'viability at 10 µM', '41 to 60%'),
  ('COc1cc2c(Oc3ccc(NS(=O)(=O)c4ccccc4Cl)cc3F)ccnc2cc1OCCCN1CCCC(C)C1 (centres unmarked) [Example 38]', 'viability at 10 µM', '21 to 40%'),
  ('COc1cc2c(Oc3ccc(NS(=O)(=O)c4cccc(C)c4)cc3F)ccnc2cc1OCCCN1CCCC(C)C1 (centres unmarked) [Example 70]', 'viability at 10 µM', '21 to 40%'),
  ('O=S(=O)(Nc1ccc(Oc2ccnc3cc(OCCCCN4CCOCC4)ccc23)c(F)c1)c1cc(F)ccc1F [Example 84]', 'viability at 10 µM', '0 to 20%'),
  ('COc1cc2c(Oc3ccc(NS(=O)(=O)c4cc(F)ccc4F)cc3F)ccnc2cc1OCC1CCCNC1 (centres unmarked) [Example 80]', 'viability at 10 µM', '21 to 40%'),
  ('COc1cc2c(Oc3ccc(NS(=O)(=O)c4ccc(Cl)cc4F)cc3F)ccnc2cc1OCCCN1CCCCC1 [Example 3]', 'viability at 10 µM', '0 to 20%'),
  ('COc1cc2c(Oc3ccc(NS(=O)(=O)c4ccccc4C(F)(F)F)cc3F)ccnc2cc1OCC(=O)N(C)C [Example 93]', 'viability at 10 µM', '21 to 40%'),
  ('COc1cc2c(Oc3ccc(NS(=O)(=O)c4cccc(Oc5ccccc5)c4)cc3F)ccnc2cc1OCCCN1CCN(C)CC1 [Example 14]', 'viability at 10 µM', '21 to 40%'),
  ('COc1cc2c(Oc3ccc(NS(=O)(=O)c4cc(F)ccc4F)cc3F)ccnc2cc1OCCCCN1CCOCC1 [Example 83]', 'viability at 10 µM', '21 to 40%'),
  ('COc1cc2nccc(Oc3ccc(NS(=O)(=O)c4ccccc4C(F)(F)F)cc3F)c2cc1OCCCN1CCN(C)CC1 [Example 86]', 'viability at 10 µM', '21 to 40%'),
  ('CCN(CC)CCCOc1cc2nccc(Oc3ccc(NS(=O)(=O)c4ccccc4C(F)(F)F)cc3F)c2cc1OC [Example 101]', 'viability at 10 µM', '21 to 40%'),
  ('COc1cc2c(Oc3ccc(NS(=O)(=O)c4cc(F)ccc4F)cc3F)ccnc2cc1OCCCN1CCCCC1 [Example 1]', 'viability at 10 µM', '0 to 20%'),
  ('COc1cc2c(Oc3ccc(NS(=O)(=O)c4ccccc4C#N)cc3F)ccnc2cc1OCCCN1CCN(C)CC1 [Example 15]', 'viability at 10 µM', '> 60%');
